Item-by-item account of AC50
Molecular target: FAD-linked sulfhydryl oxidase ALR (Homo sapiens)
Sequence (P55789 whole entry): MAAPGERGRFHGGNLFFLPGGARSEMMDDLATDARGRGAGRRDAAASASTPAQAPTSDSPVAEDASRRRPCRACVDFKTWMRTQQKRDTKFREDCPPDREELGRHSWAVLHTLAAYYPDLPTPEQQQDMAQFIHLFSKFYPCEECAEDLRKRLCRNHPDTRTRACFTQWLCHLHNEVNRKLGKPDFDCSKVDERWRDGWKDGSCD
Test: ALR-catalysed DTT oxidation blockers – biochemical, H2O2 detection, luminescence, cherry-pick, dose response (AID 493248)
Active and inactive are the calls of the source.

According to the records, this compound [O-][n+]1ccccc1S displays AC50 of 432 nM (active)

According to the records, this compound CCN(CC)C(=N)/C(C#N)=N/Nc1ccc(C)cc1 displays AC50 of 35 nM (active)

According to the records, this compound O=C(NCC(=O)N1CCN(c2ccccc2O)CC1)c1ccco1 displays AC50 of 2220 nM (active)

According to the records, this compound COc1cc(-c2csc(C)n2)ccc1O displays AC50 of 13900 nM (active)

According to the records, this compound Cc1ccc(-c2c3c(=O)n(C)c(=O)n(C)c3cn2-n2cnnc2)cc1 displays AC50 of 9890 nM (active)

###

Molecular target: Rac GTPase-activating protein 1 (Homo sapiens)
Sequence (Q9H0H5 whole entry): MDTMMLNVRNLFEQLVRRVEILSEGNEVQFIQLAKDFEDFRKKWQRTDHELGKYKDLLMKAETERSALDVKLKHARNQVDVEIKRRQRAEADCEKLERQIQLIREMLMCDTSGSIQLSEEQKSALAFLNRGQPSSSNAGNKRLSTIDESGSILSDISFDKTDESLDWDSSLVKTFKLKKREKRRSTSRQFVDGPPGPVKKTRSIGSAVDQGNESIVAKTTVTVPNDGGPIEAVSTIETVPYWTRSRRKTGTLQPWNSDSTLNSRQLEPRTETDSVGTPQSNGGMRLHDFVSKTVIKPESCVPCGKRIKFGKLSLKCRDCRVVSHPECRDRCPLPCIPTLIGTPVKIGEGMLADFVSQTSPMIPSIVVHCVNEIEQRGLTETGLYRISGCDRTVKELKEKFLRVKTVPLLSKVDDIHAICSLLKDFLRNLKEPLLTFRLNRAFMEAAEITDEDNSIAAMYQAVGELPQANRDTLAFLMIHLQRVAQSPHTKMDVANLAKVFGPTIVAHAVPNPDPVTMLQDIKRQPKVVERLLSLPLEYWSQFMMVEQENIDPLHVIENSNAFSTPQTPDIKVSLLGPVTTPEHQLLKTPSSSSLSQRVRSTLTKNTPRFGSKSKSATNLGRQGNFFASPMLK
Test: blockers of MgcRacGAP-driven Rac1 GTP hydrolysis – biochemical, ADP Hunter fluorescence, primary and confirmatory, confirmation (AID 624330)
Format: functional
Active and inactive are the calls of the source.
outcome measure: IC50

As a guide, the following entries are already answered.
- COc1cc(CN2CCC(C(=O)N3CCN(c4ccccc4F)CC3)CC2)ccc1O: 110 µM (active)
- Nc1nc2c(s1)CCc1ccccc1-2: 41.4 µM (active)

According to the records, this compound CC1CCCCN1CC(=O)Nc1ccc(N2CCCCCC2)cc1 (stereo unspecified) displays IC50 of 101 µM (active)

According to the records, this compound O=C(Cc1ccccc1)N1CCN(Cc2ccc(F)cc2)CC1 displays IC50 of 130 µM (active)

According to the records, this compound CN(C)CCNc1ccc(CO)c2oc3ccc(O)cc3c(=O)c12 displays IC50 of 128 µM (active)

According to the records, this compound CCCCN(C)C(=O)C1CCN(Cc2cccc(OCc3ccccc3)c2)CC1 displays IC50 of 172 µM (active)

###

Record set of AC50 for target or system Cytochrome P450 1A2 (Homo sapiens).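 Further: PubChem cytochrome P450 panel assay, CYP1A2 panel member.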

As a guide, the following entries are already answered.
• COc1cccc(Nc2ncc3nc(CCc4ccccc4)c(=O)n(C4CC4)c3n2)c1 = 5.01 µM (inconclusive)
• COc1ccc(-c2nc3cnc(N4CCNCC4)nc3n(CCc3ccccc3)c2=O)cc1 = 15.8 µM (inconclusive)

According to the records, this compound CN1CCN(c2ncncc2-c2ccoc2)CC1 displays AC50 of 31.6 µM (inconclusive)

###

Target: Fatty acid synthase (Homo sapiens, UniProt P49327)
Sequence (P49327 whole entry): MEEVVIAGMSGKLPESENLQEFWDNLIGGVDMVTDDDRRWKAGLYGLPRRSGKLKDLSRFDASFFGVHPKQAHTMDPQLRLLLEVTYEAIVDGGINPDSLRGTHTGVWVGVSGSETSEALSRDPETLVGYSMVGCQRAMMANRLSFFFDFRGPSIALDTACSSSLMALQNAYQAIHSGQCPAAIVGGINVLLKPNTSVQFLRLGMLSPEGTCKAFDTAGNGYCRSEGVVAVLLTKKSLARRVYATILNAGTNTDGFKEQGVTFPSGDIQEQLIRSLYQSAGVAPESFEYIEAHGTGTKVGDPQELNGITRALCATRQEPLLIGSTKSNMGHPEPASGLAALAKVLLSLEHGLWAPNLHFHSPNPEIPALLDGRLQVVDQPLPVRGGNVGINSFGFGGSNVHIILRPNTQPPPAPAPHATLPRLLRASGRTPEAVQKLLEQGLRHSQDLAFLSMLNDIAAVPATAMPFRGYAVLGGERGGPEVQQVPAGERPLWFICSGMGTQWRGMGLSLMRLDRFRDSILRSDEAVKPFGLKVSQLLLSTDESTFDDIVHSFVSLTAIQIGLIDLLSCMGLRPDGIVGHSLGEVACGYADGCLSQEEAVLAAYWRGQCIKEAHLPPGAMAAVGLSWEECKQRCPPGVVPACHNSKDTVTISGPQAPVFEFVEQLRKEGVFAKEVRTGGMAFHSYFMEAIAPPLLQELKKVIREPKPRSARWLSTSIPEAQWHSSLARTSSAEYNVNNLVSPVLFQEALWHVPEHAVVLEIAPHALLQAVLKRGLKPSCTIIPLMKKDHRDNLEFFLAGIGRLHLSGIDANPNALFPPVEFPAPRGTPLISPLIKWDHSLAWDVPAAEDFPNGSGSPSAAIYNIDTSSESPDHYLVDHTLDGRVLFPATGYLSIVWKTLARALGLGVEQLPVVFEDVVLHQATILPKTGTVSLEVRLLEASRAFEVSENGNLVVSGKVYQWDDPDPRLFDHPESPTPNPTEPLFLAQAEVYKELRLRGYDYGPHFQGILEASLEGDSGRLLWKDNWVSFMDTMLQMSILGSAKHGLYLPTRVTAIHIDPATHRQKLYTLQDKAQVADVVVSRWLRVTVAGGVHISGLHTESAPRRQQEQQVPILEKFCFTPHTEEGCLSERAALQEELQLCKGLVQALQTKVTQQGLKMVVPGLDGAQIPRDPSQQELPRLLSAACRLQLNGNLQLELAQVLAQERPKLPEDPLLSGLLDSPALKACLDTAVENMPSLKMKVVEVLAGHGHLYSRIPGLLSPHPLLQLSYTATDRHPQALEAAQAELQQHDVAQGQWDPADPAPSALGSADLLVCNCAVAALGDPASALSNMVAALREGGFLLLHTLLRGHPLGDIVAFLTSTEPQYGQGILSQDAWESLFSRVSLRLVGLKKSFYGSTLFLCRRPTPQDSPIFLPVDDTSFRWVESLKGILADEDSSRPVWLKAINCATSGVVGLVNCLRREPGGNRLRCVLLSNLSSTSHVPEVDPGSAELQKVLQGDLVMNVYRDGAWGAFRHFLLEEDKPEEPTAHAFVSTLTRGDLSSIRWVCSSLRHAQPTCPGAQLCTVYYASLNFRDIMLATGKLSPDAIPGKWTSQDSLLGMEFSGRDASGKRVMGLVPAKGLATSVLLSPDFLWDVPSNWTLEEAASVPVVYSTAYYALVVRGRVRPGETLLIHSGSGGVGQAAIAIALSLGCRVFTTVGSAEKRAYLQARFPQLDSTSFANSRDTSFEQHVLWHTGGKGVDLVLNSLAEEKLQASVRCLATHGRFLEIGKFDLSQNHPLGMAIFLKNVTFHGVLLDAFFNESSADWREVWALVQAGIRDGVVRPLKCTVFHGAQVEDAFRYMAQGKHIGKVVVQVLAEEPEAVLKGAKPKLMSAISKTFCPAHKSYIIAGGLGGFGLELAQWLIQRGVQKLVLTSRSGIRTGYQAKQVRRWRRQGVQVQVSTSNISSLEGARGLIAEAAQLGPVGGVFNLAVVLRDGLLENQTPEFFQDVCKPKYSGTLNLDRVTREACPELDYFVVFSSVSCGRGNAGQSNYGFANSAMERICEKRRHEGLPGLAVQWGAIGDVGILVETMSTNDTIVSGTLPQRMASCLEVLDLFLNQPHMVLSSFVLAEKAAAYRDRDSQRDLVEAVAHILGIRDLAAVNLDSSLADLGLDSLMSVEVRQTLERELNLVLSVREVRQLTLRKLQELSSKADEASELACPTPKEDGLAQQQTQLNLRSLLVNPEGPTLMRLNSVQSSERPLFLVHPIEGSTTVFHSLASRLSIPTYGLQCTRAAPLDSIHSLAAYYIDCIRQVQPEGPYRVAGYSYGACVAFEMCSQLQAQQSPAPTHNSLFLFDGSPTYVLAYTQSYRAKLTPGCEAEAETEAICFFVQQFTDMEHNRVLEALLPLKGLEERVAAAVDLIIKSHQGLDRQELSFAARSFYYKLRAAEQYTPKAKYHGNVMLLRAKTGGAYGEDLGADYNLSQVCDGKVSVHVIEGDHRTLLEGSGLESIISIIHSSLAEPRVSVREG
Assay: inhibition of human FAS-TE enzyme activity – biochemical, kinetic fluorescence intensity, dose response (AID 624326);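 further: rate of fluorescence rise from hydrolysis of a fluorogenic O-methyl fluorescein ester substrate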
Type: functional
Calls of active or inactive are those of the source.
Item-by-item account of IC50

Tested on Fatty acid synthase (Homo sapiens, UniProt P49327), the item O=C(NC(Nc1ncc(S(=O)(=O)c2ccc([N+](=O)[O-])cc2)s1)(C(F)(F)F)C(F)(F)F)c1ccc(Cl)cc1 showed IC50 equal to 7.87 µM (active)

Tested on Fatty acid synthase (Homo sapiens, UniProt P49327), the item CC1CCN(C(=O)c2ccc3c(Cl)c4c(nc3c2)CCCC4)CC1 showed IC50 equal to 6.9 µM (active)

Tested on Fatty acid synthase (Homo sapiens, UniProt P49327), the item O=C(CCn1c(=O)c2ccccc2n(Cc2cccc([N+](=O)[O-])c2)c1=O)N1CCc2ccccc2C1 showed IC50 equal to 1.17 µM (active)

Tested on Fatty acid synthase (Homo sapiens, UniProt P49327), the item CC[C@@H](C)[C@H](NC(=O)OC(C)(C)C)c1nnc(S(=O)(=O)Cc2cc(C)ccc2C)o1 showed IC50 equal to 4.12 µM (active)

###

Target: UniProtKB P9WHJ3
Test: Fluorescence Cell-Free Homogeneous Dose Retest to Identify Inhibitors of RecA-Intein Splicing Activity. [Related pubchem assays (depositor defined):AID2097, AID2223, AID489010, AID492950]
Assay type: functional
The source made the active and inactive calls.
outcome measure: EC50

As a guide, the following entries are already answered.
- CCOC(=O)/C(C#N)=C\c1ccc(O)c(OC)c1: 9.54 µM (active)
- CC(=O)Oc1c(/C=C(\C#N)C(N)=O)[nH]c2ccccc12: 0.0314 µM (active)
- O=c1[nH]cc(/N=C/c2cc(Cl)cc(Cl)c2O)c(=O)[nH]1: 4.14 µM (active)
- COCC(C)NC(=O)CCS(=O)(=O)c1nc(-c2ccc(OC)cc2)cc(C(F)(F)F)n1 (stereo not drawn): 6.72 µM (active)
- CCOC(=O)CSc1nc2sc3c(c2c(=O)n1C1CCCCC1)CCN(C)C3: 15.2 µM (active)

According to the records, this molecule O=C(NC1CCCC1)C(c1ccc(F)cc1)N(Cc1ccc(Cl)cc1)C(=O)CCl (stereo not drawn) displays EC50 of 0.965 µM (active)

According to the records, this molecule COc1ccc(CC(=O)N/N=C(/C)CC(=O)N(C)c2ccccc2)cc1 displays EC50 of 9.23 µM (active)

According to the records, this molecule COc1ccc(-c2[nH]nc3c2C(c2ccccc2OC(=O)N2CCOCC2)C(C#N)=C(N)O3)cc1 (stereo not drawn) displays EC50 of 3.91 µM (active)

According to the records, this molecule N#CC(C#N)=C(C#N)c1ccc(Nc2ccccc2)cc1 displays EC50 of 2.49 µM (active)

According to the records, this molecule O=C(CCl)N1N=C(c2ccco2)CC1c1ccco1 (stereo not drawn) displays EC50 of 9.97 µM (active)

According to the records, this molecule Cn1cnc([N+](=O)[O-])c1Oc1ccc2ccccc2c1 displays EC50 of 12.7 µM (active)

According to the records, this molecule Cc1ccccc1NC(=O)C(=Cc1ccc(C(=O)O)cc1)C(=O)Nc1ccccc1C displays EC50 of 5.08 µM (active)

According to the records, this molecule Cc1ccc2c(c1)c1nnc(SCC(=O)Nc3ccc(N(C)C)cc3)nc1n2CC(=O)O displays EC50 of 0.483 µM (active)
